All values here come from ChEMBL document CHEMBL2412955.

Tested on: Staphylococcus
Assay: Antibacterial activity against methicillin-susceptible coagulase-negative Staphylococcus after 18 hrs by NCCLS agar dilution method
Format: functional
measured metric: log10 MIC (log10 of the value in µg/mL)
Heads up, the numbers here are log10 of MIC in µg/mL units.

Completed entries (count: 2):
INSERT INTO assay_data (compound, value_measured) VALUES
  ('Cc1cn(C[C@H]2CN(c3ccc(N4CCN(C(=O)CNC(=O)C5CCCO5)CC4)c(F)c3)C(=O)O2)nn1 (some centres undefined)', 1.20),
  ('CC(C)(C)OC(=O)NCC(=O)N1CCN(c2ccc(N3C[C@H](Cn4ccnn4)OC3=O)cc2F)CC1', 0.30);

Noted for CCOC(=O)CC(=O)NCC(=O)N1CCN(c2ccc(N3C[C@H](Cn4ccnn4)OC3=O)cc2F)CC1 : its log10 MIC reads 0.60

Noted for O=C(NCC(=O)N1CCN(c2ccc(N3C[C@H](Cn4ccnn4)OC3=O)cc2F)CC1)c1cccs1 : its log10 MIC reads -0.30
